Test system: Cathepsin S
method-notes: Screening of Cathepsin S, fluorescence
Format: biochemical
test-conditions: >> inhibition rate did not exceed 20% at test concentration; > greater than 35%; ≈ about 50%; < less than 50%
outcome-measure: Cat S/K ratio of inhibitory activities

For this compound ( CC(C)(C)CN(Cc1ccc(-c2ccc(S(C)(=O)=O)cc2)cc1)c1nccc(C#N)n1 ), measured Cat S/K ratio of inhibitory activities is >>3,300

For this compound ( CC(C)(C)CN(Cc1ccc(-c2ccccc2)cc1)c1nccc(C#N)n1 ), measured Cat S/K ratio of inhibitory activities is >>2,100

For this compound ( CN1CCN(c2nc(-c3ccc(CN(CC(C)(C)C)c4nccc(C#N)n4)cc3)cs2)CC1 ), measured Cat S/K ratio of inhibitory activities is >>5,780

For this compound ( O=C1COC[C@@H]1NC(=O)[C@@H]1CCCC[C@H]1C(=O)N1CCc2c([nH]c3c(F)cccc23)C1 ), measured Cat S/K ratio of inhibitory activities is >710

For this compound ( CC(C)(F)C[C@H](N[C@@H](c1ccc(-c2ccc(S(C)(=O)=O)cc2)cc1)C(F)(F)F)C(=O)NC1(C#N)CC1 [Odanacatib, reference compound] ), measured Cat S/K ratio of inhibitory activities is <290

For this compound ( CN1CCN(c2ccc(CN(CC(C)(C)C)c3nccc(C#N)n3)cc2)CC1 ), measured Cat S/K ratio of inhibitory activities is >800

For this compound ( CS(=O)(=O)c1ccc(-c2ccc(CN(CC3CCCCC3)c3nccc(C#N)n3)cc2)cc1 ), measured Cat S/K ratio of inhibitory activities is >>3,300
